// values below are reported % Blockade
- tgt: T1, recombinant hCTLA-4-mFc (human CTLA-4 extracellular domain with a C-terminal Fc portion of mouse IgG2a) (human)
- T1 construct: also called dimeric CTLA-4 protein
- assay.explanation: competition ELISA, 200 pM hCTLA-4-mFc on plate-coated hB7-1-hIgG1-6His
quantity.kind: % Blockade (%)

{"binder": "H1H19294P (antibody, human IgG1, V domains shown) VH: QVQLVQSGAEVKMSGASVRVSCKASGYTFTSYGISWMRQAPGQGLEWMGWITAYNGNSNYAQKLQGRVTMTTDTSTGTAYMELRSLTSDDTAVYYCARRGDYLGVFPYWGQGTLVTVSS VL: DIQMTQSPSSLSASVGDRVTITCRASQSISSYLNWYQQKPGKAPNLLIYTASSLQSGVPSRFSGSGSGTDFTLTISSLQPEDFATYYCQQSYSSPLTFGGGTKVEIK", "measured": 99}
{"binder": "H1H20372N (antibody, human IgG1, V domains shown, here with human IgG1 Fc (H1H)) VH: EVQLVESGGGLVQPGRSLRLSCAGTGFIFDDYAMHWVRQAPGKGLEWVSGISWNSNSLGYADSVKGRFTISRDNAKKSLYLQMSSLRAEDTALYYCVKDVTRLELRGFLDYWGQGTQVTVSS VL: DIQMTQSPSSLSASVGDRVTITCRASQDIRNDLGWHQQKSGKAPKSLIYAASSLQSGAPSRFSGSGSGTEFTLTISSLQPEDSATYYCLQQNSYPPTFGQGTKVEIK", "measured": 98}
{"binder": "H1H19264P (antibody, human IgG1, V domains shown) VH: QVQLVQSGAEVKKPGASVKVSCKASDYTFTSYGISWVRQAPGQGLEWMGWISVYNGNINYAQKFKGRVTMTTDTSTSTAYMELRSLRSDDMAVYYCARVTQFGMDVWGQGTTVTVSS VL: DIQMTQSPSSLSASVGDRVTITCRASQSISSNLNWYQQNPGKAPKLLIYTTSSLQGGVPSRFSGSGSGTDFTLTISSLQPEDFATYYCQQSFRTPFTFGPGTKVDIK", "measured": 8}
{"binder": "H1H19281P (antibody, human IgG1, V domains shown) VH: QVQLVESGGGVVQPGRSLRLSCAASGLTFSYYGMHWVRQAPGKGLEWVAVISYDGSNKYYADSVKGRFTISRDNSKNTLYLQMNSLRAEDAAVYYCAKDLGGDDYYGMDVWGQGTTVTVSS VL: EIVLTQSPGTLSLSPGERATLSCRASQSVSRTYLAWYQQKPGQAPRLLIYGAFSRATGIPDRFSGSGSGTDFTLTISRLEPEDFAVYYCQQYGSSPYTFGQGTKLEIK", "measured": 99}
